Values compiled from the supplement of paper PMC6757056.

B1: library; a variant is named by its letters at N, in order (parent)
chain: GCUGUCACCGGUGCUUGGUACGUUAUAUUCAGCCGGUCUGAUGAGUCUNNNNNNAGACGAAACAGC

Variants of: B1
ASSAY: normalized RNA/DNA level without ligand (relative to sTRSVctl = 100) (log10 (% of sTRSVctl)); HEK293T overexpressing SLC46A1; higher = less ribozyme self-cleavage, higher mRNA level
RECORDED_CONDITIONS: without (6R,S)-folinic acid; ligand present: no
Here, each record is paired with measured normalized RNA/DNA level without ligand (log10) data.
Lab note: jot down the number only; don't add units.

Recorded normalized RNA/DNA level without ligand (log10), per entry:
{"VARIANT_STRING": "CUGUAA", "READING": 1.96}
{"VARIANT_STRING": "GGCCUA", "READING": 2.04}
{"VARIANT_STRING": "AUCUUA", "READING": 2.04}
{"VARIANT_STRING": "GGUGAC", "READING": 2.03}
{"VARIANT_STRING": "CUACCC", "READING": 2.04}

API: the following record is the query input.
Qu. Which normalized RNA/DNA level without ligand (log10) is listed for UUGCUC ?
Ans. 2.05
